Each item that follows carries a reported IC50.
- measured_target: TNFα / TNFα receptor (TNFα R1/Fc) (Homo sapiens)
- Construct: purchased R&D Systems
- Sequence (P01375 77-233 limits assumed, species assumed): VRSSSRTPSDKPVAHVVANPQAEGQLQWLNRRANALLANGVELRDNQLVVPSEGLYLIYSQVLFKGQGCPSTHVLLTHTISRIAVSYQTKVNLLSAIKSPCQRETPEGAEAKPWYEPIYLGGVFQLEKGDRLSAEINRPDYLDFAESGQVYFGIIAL
- assay: Inhibition of binding of TNFα to the TNFα receptor (plate ELISA competition)
- condition_details: Table 2; read-out: Activity (IC50, inhibition of TNFα binding to TNFα R1/Fc)
Numbered stars: 1 amine (or outer) side, 2 acyl side, 3 side chain; on linkers, the order of the positions; unused ones are H or OH. Bridge positions count the residues as written; N and C are the ends. Square brackets hold non-standard residues; d marks the D form. Peptide text beside a SMILES is read from it. Phe(4-COOH) = N[C@@H](Cc1ccc(C(=O)O)cc1)C(=O)O; Bip = N[C@@H](Cc1ccc(-c2ccccc2)cc1)C(=O)O; dBip = N[C@H](Cc1ccc(-c2ccccc2)cc1)C(=O)O; dPhe(4-NH2) = Nc1ccc(C[C@@H](N)C(=O)O)cc1; Phe(4-Br) = N[C@@H](Cc1ccc(Br)cc1)C(=O)O; Phe(4-NH2) = Nc1ccc(C[C@H](N)C(=O)O)cc1; d(hPhe) = N[C@H](CCc1ccccc1)C(=O)O; 2Thi = N[C@@H](Cc1cccs1)C(=O)O; Suc = O=C(CCC(=O)[*:2])[*:1]; GABA = NCCCC(=O)O

Record excerpt, results attached:
The observed IC50 for NC(=O)C[C@@H]1NC(=O)COc2ccc(cc2)C[C@@H](C(=O)O)NC(=O)[C@H](Cc2ccccc2)NC(=O)[C@@H](Cc2ccc(-c3ccccc3)cc2)NC1=O [Compound 488] when tested with TNFα / TNFα receptor (TNFα R1/Fc) (Homo sapiens) stands at > 100 µM

Hey, TNFα / TNFα receptor (TNFα R1/Fc) (Homo sapiens) data for O=C1COc2ccc(cc2)C[C@@H](C(=O)O)NC(=O)[C@@H](Cc2ccncc2)NC(=O)[C@H](Cc2ccc(-c3ccccc3)cc2)NC(=O)[C@@H](Cc2cccs2)N1 [Compound 536] : IC50 came out at < 10 µM

Observed IC50 on TNFα / TNFα receptor (TNFα R1/Fc) (Homo sapiens), entry O=C1CCCNC(=O)c2ccc(cc2)C[C@@H](C(=O)O)NC(=O)[C@@H](Cc2ccccc2)NC(=O)[C@H](Cc2ccc(-c3ccccc3)cc2)NC(=O)[C@@H](CCc2ccccc2)N1 [Compound 249] ([GABA][d(hPhe)][Bip][dF][Phe(4-COOH)]-OH; lactam N-5) , equals > 100 µM

More entries:
I looked up O=C1COc2ccc(cc2)C[C@@H](C(=O)O)NC(=O)[C@@H](CCc2ccccc2)NC(=O)[C@H](Cc2ccc(-c3ccccc3)cc2)NC(=O)[C@@H](Cc2ccc(F)cc2)N1 [Compound 519] and its IC50 for TNFα / TNFα receptor (TNFα R1/Fc) (Homo sapiens) was 10 to 30 µM

Measured IC50 for this entry O=C(O)[C@@H]1Cc2ccc(cc2)NC(=O)[C@H](O)[C@@H](O)C(=O)N[C@H](Cc2cccs2)C(=O)N[C@@H](Cc2ccc(-c3ccccc3)cc2)C(=O)N[C@H](CCc2ccccc2)C(=O)N1 [Compound 289] on TNFα / TNFα receptor (TNFα R1/Fc) (Homo sapiens): < 10 µM

# lookup: O=C1CCC(=O)N[C@H](CCc2ccccc2)C(=O)N[C@@H](Cc2ccc(Br)cc2)C(=O)N[C@H](Cc2ccccc2)C(=O)N[C@@H](C(=O)O)Cc2ccc(cc2)N1 [Compound 111] ([d(hPhe)][Phe(4-Br)][dF][dPhe(4-NH2)]-OH; linker N-4 via Suc) on TNFα / TNFα receptor (TNFα R1/Fc) (Homo sapiens), IC50 = 10 to 30 µM

Form: item O=C1CCC(=O)N[C@@H](Cc2cccs2)C(=O)N[C@H](Cc2ccc(-c3ccccc3)cc2)C(=O)N[C@@H](Cc2ccccc2)C(=O)N[C@H](C(=O)O)Cc2ccc(cc2)N1 [Compound 493] ([2Thi][dBip]F[Phe(4-NH2)]-OH; linker N-4 via Suc) ; test system TNFα / TNFα receptor (TNFα R1/Fc) (Homo sapiens); IC50: < 10 µM
